// values below are reported pEC50
- Tested on: HEL
- assay details: Effective concentration required to inhibit HCMV AD-169 in HEL Cells
- Type: functional, cell-based
- reported conditions: Homo sapiens
pEC50: −log10 of the molar value.

Here is how some compounds turned out for pEC50.
1) Cc1cn([C@@H]2O[C@H](CO[Si](C)(C)C(C)(C)C)[C@@]3(OS(=O)(=O)C=C3NC(N)=O)[C@H]2O[Si](C)(C)C(C)(C)C)c(=O)n(C)c1=O = < 5.49
2) CCOC(=O)CNC(=O)NC1=CS(=O)(=O)O[C@@]12[C@@H](CO[Si](C)(C)C(C)(C)C)O[C@@H](n1cc(C)c(=O)n(C)c1=O)[C@@H]2O[Si](C)(C)C(C)(C)C = < 5.49
3) Cc1cn([C@@H]2O[C@H](CO[Si](C)(C)C(C)(C)C)[C@@]3(OS(=O)(=O)C=C3NC(=O)C(=O)O)[C@H]2O[Si](C)(C)C(C)(C)C)c(=O)n(C)c1=O = < 4.10
4) COC(=O)CCNC1=CS(=O)(=O)O[C@@]12[C@@H](CO[Si](C)(C)C(C)(C)C)O[C@@H](n1cc(C)c(=O)n(C)c1=O)[C@@H]2O[Si](C)(C)C(C)(C)C = < 3.40
5) Cc1cn([C@@H]2O[C@H](CO[Si](C)(C)C(C)(C)C)[C@@]3(OS(=O)(=O)C=C3NCCC(=O)O)[C@H]2O[Si](C)(C)C(C)(C)C)c(=O)n(C)c1=O = < 4.80
6) Cc1cn([C@@H]2O[C@H](CO[Si](C)(C)C(C)(C)C)[C@@]3(OS(=O)(=O)C=C3NCCC(N)=O)[C@H]2O[Si](C)(C)C(C)(C)C)c(=O)n(C)c1=O = < 4.80
7) COC(=O)NC1=CS(=O)(=O)O[C@@]12[C@@H](CO[Si](C)(C)C(C)(C)C)O[C@@H](n1cc(C)c(=O)n(C)c1=O)[C@@H]2O[Si](C)(C)C(C)(C)C = ≤ 4.70
8) CCNC(=O)NC1=CS(=O)(=O)O[C@@]12[C@@H](CO[Si](C)(C)C(C)(C)C)O[C@@H](n1cc(C)c(=O)n(C)c1=O)[C@@H]2O[Si](C)(C)C(C)(C)C = 5.74

In: Recorded pEC50 for `CC(=O)NC1=CS(=O)(=O)O[C@@]12[C@@H](CO[Si](C)(C)C(C)(C)C)O[C@@H](n1cc(C)c(=O)n(C)c1=O)[C@@H]2O[Si](C)(C)C(C)(C)C` , please?
Out: 4.40

In: Try this compound too: `CCOC(=O)NC(=O)NC1=CS(=O)(=O)O[C@@]12[C@@H](CO[Si](C)(C)C(C)(C)C)O[C@@H](n1cc(C)c(=O)n(C)c1=O)[C@@H]2O[Si](C)(C)C(C)(C)C`
Out: 5.64

###

- Test system: CCRF-CEM
- assay details: Effective concentration required to inhibit HIV-2 ROD in CEM cell culture
- Type: functional, cell-based
- reported conditions: Homo sapiens
pEC50: −log10 of the molar value.
quantity name: pEC50

Below, each entry is followed by its recorded pEC50 result.
1. COC(=O)CNC1=CS(=O)(=O)O[C@@]12[C@@H](CO[Si](C)(C)C(C)(C)C)O[C@@H](n1cc(C)c(=O)n(C)c1=O)[C@@H]2O[Si](C)(C)C(C)(C)C = < 3.90
2. Cc1cn([C@@H]2O[C@H](CO[Si](C)(C)C(C)(C)C)[C@@]3(OS(=O)(=O)C=C3NC(=O)C(N)=O)[C@H]2O[Si](C)(C)C(C)(C)C)c(=O)n(C)c1=O = < 5.00
3. Cc1cn([C@@H]2O[C@@H]3COC(=O)[C@]3(OS(C)(=O)=O)[C@H]2O)c(=O)[nH]c1=O = < 4.30
4. Cc1cn([C@@H]2O[C@H](CO[Si](C)(C)C(C)(C)C)[C@@]3(OS(=O)(=O)C=C3NC(=O)C(=O)N3CCC3)[C@H]2O[Si](C)(C)C(C)(C)C)c(=O)n(C)c1=O = < 5.00
5. Cc1cn([C@@H]2O[C@@H]3COC4(O)CS(=O)(=O)O[C@@]34[C@H]2O)c(=O)[nH]c1=O (stereo partly specified) = < 4.00

Next molecule, pEC50 to be filled in.
In: Which measured pEC50 value corresponds to `Cc1cn([C@@H]2O[C@H](CO[Si](C)(C)C(C)(C)C)[C@@]3(OS(=O)(=O)C=C3NC(N)=O)[C@H]2O[Si](C)(C)C(C)(C)C)c(=O)n(C)c1=O` ?
Out: < 5.70

###

- Tested on: CCRF-CEM
- assay details: Effective concentration required to inhibit HIV-1 IIIB in CEM cell culture
- Format: functional, cell-based
- reported conditions: Homo sapiens
quantity name: log10 of EC50 (log10 of the value in nM)
In our notation, the value equals log10 of EC50 in nM.

Consider the worked cases shown below.
1. Cc1cn([C@@H]2O[C@H](CO[Si](C)(C)C(C)(C)C)[C@@]3(OS(=O)(=O)C=C3NCC(=O)OCc3ccccc3)[C@H]2O[Si](C)(C)C(C)(C)C)c(=O)n(C)c1=O = 3.83
2. Cc1cn([C@@H]2O[C@H](CO[Si](C)(C)C(C)(C)C)[C@@]3(OS(=O)(=O)C=C3NC(=O)C(=O)N3CCC3)[C@H]2O[Si](C)(C)C(C)(C)C)c(=O)n(C)c1=O = 2.85
3. Cc1cn([C@@H]2O[C@H](CO[Si](C)(C)C(C)(C)C)[C@@]3(OS(=O)(=O)C=C3NC(=O)C(N)=O)[C@H]2O[Si](C)(C)C(C)(C)C)c(=O)n(C)c1=O = 1.45
4. Cc1cn([C@@H]2O[C@H](CO[Si](C)(C)C(C)(C)C)[C@@]3(OS(=O)(=O)C=C3N)[C@H]2O[Si](C)(C)C(C)(C)C)c(=O)n(C)c1=O = 1.60

In: Any idea what its log10 of EC50 is? The molecule is `CCOC(=O)CN1C(=O)CN(C(=O)NC2=CS(=O)(=O)O[C@@]23[C@@H](CO[Si](C)(C)C(C)(C)C)O[C@@H](n2cc(C)c(=O)n(C)c2=O)[C@@H]3O[Si](C)(C)C(C)(C)C)C1=O`
Out: 2.38

In: Please answer likewise for `Cc1cn([C@@H]2O[C@H](CO[Si](C)(C)C(C)(C)C)[C@@]3(OS(=O)(=O)C=C3NCCC(N)=O)[C@H]2O[Si](C)(C)C(C)(C)C)c(=O)n(C)c1=O`
Out: 3.70

In: Now the same for `COC(=O)CNC1=CS(=O)(=O)O[C@@]12[C@@H](CO[Si](C)(C)C(C)(C)C)O[C@@H](n1cc(C)c(=O)n(C)c1=O)[C@@H]2O[Si](C)(C)C(C)(C)C`
Out: 2.78

In: Thanks! And `Cc1cn([C@@H]2O[C@H](CO[Si](C)(C)C(C)(C)C)[C@@]3(OS(=O)(=O)C=C3NC(=O)C(=O)O)[C@H]2O[Si](C)(C)C(C)(C)C)c(=O)n(C)c1=O` ?
Out: 2.36

In: What do you get for `COC(=O)C(=O)NC1=CS(=O)(=O)O[C@@]12[C@@H](CO[Si](C)(C)C(C)(C)C)O[C@@H](n1cc(C)c(=O)n(C)c1=O)[C@@H]2O[Si](C)(C)C(C)(C)C` ?
Out: 1.78

###

- Test system: CCRF-CEM
- assay details: Cytostatic concentration required to inhibit CEM cell proliferation
- Assay type: functional
- reported conditions: Homo sapiens
Each record is given 1 if its reported CC50 is strictly below 30 µM. Records at or above 30 µM are given -1.

Example cases with answers are listed next.
1. CCOC(=O)CNC(=O)NC1=CS(=O)(=O)O[C@@]12[C@@H](CO[Si](C)(C)C(C)(C)C)O[C@@H](n1cc(C)c(=O)n(C)c1=O)[C@@H]2O[Si](C)(C)C(C)(C)C = 1
2. C=C(C)C(=O)NC(=O)NC1=CS(=O)(=O)O[C@@]12[C@@H](CO[Si](C)(C)C(C)(C)C)O[C@@H](n1cc(C)c(=O)n(C)c1=O)[C@@H]2O[Si](C)(C)C(C)(C)C = 1
3. CC(=O)NC1=CS(=O)(=O)O[C@@]12[C@@H](CO[Si](C)(C)C(C)(C)C)O[C@@H](n1cc(C)c(=O)n(C)c1=O)[C@@H]2O[Si](C)(C)C(C)(C)C = 1
4. Cc1cn([C@@H]2O[C@H](CO[Si](C)(C)C(C)(C)C)[C@@]3(OS(=O)(=O)C=C3NC(=O)c3ccccc3)[C@H]2O[Si](C)(C)C(C)(C)C)c(=O)n(C)c1=O = 1
5. Cc1cn([C@@H]2O[C@H](CO[Si](C)(C)C(C)(C)C)[C@@]3(OS(=O)(=O)C=C3NCCC(=O)O)[C@H]2O[Si](C)(C)C(C)(C)C)c(=O)n(C)c1=O = 1

In: Dear colleague, could you confirm whether CC50 of `Cc1cn([C@@H]2O[C@H](CO[Si](C)(C)C(C)(C)C)[C@@]3(OS(=O)(=O)C=C3NC(=O)C(=O)N3CCC3)[C@H]2O[Si](C)(C)C(C)(C)C)c(=O)n(C)c1=O` falls below 30 µM? Thanks.
Out: 1

In: Entry to check: `Cc1cn([C@@H]2O[C@H](CO[Si](C)(C)C(C)(C)C)[C@@]3(OS(=O)(=O)C=C3NC(=O)C(=O)O)[C@H]2O[Si](C)(C)C(C)(C)C)c(=O)n(C)c1=O`
Out: -1

In: Then this compound: Cc1cn([C@@H]2O[C@@H]3COC4(O)CS(=O)(=O)O[C@@]34[C@H]2O)c(=O)[nH]c1=O (stereo partly specified)
Out: -1

In: Please do the same for `CCOC(=O)NC(=O)NC1=CS(=O)(=O)O[C@@]12[C@@H](CO[Si](C)(C)C(C)(C)C)O[C@@H](n1cc(C)c(=O)n(C)c1=O)[C@@H]2O[Si](C)(C)C(C)(C)C` as well.
Out: 1

In: Next entry: `Cc1cn([C@@H]2O[C@H](CO[Si](C)(C)C(C)(C)C)[C@@]3(OS(=O)(=O)C=C3NCC(=O)O)[C@H]2O[Si](C)(C)C(C)(C)C)c(=O)n(C)c1=O`
Out: -1

In: Check `COC(=O)CCNC1=CS(=O)(=O)O[C@@]12[C@@H](CO[Si](C)(C)C(C)(C)C)O[C@@H](n1cc(C)c(=O)n(C)c1=O)[C@@H]2O[Si](C)(C)C(C)(C)C` too.
Out: -1
